- Assay Text: recombinant UMI read abundance after kanamycin selection (control-corrected) (log10(CPM+1)); higher = more efficient recombination; extreme values may be limits of the assay; sequences stand for … in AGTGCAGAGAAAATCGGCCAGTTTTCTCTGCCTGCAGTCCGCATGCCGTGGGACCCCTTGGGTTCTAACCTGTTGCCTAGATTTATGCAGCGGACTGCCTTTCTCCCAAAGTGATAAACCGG…AGGTTGGTTTCACT; site = the 11-nt donor;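 note: IS621 bridge recombinase in Escherichia coli cells against a fixed T5 target plasmid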
Param threshold (0.02) applies to recombinant UMI read abundance (log10); output Met when value >= threshold, Not met when value < threshold.

Example cases with answers are listed next.
Item Sequence	Category
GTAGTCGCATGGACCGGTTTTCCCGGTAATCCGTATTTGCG (site GAAGTCGCTCG)	Not met
TGGCAGGCATGGACCGGTTTTCCCGGTAATCCGTATTTGGC (site TGGCAGGCTGC)	Met
GCGATGCCATGGACCGGTTTTCCCGGTAATCCGTATTTGGG (site GCGAGGCCTCC)	Not met

For the next question, use this sequence.
Hi, just wondering whether GAGTTCACATGGACCGGTTTTCCCGGTAATCCGTATTTGAT (site GAGGTCACTAT) shows recombinant UMI read abundance (log10) of 0.02 or higher.
Not met

Data credit: the supplement of paper PMC11208160
